- test-name: small-molecule microarray binders of probe aNog, primary screen, biochemical, biotinylated probe, 635/667 nm fluorescence (AID 1115);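 note: probe is biotinylated aNog protein used at 0.15 µg/mL for 1 h at 4 C; z-score combines 667 nm fluorescence of each spot with its signal to noise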
- test-parameters: higher = more signal
measure-name: composite z-score

{"structure": "COC(=O)[C@@]1(Cc2ccc(OC)cc2)[C@H]2c3cc(C(=O)N(C)C)n(Cc4c(OC)[nH]cc(C)c4=O)c3C[C@H]2CN1C(=O)c1ccccc1", "test-result": -0.248}
{"structure": "COc1ccc(CCNC(=O)[C@@H]2c3ccccc3C(=O)N(Cc3ccc(OC(F)(F)F)cc3)[C@H]2c2ccc(CO)cc2)cc1", "test-result": 0.28}
{"structure": "COc1cc2c(cc1OC)CN(C(=O)[C@@H]1[C@H]3C(=O)O[C@H](c4ccccc4)[C@H](c4ccccc4)N3[C@H](c3ccccc3OCCO)[C@@]13C(=O)Nc1ccc(C#CCNC(N)=O)cc13)CC2", "test-result": 1.12}
{"structure": "CCCCC=C[C@@H](NC(=O)c1cccs1)c1ccccc1", "test-result": -0.269}
{"structure": "COc1ccc([Si](C)(C)[C@@H]2[C@@H](CC(=O)N3CCC[C@H]3CO)O[C@]3(C(=O)N(C)c4c(Br)cc(C)cc43)[C@H]2C)cc1", "test-result": -0.229}
{"structure": "Cc1ccc(S[C@]2(C(=O)NCC(C)C)CC(=O)N(Cc3ccccc3Cl)[C@@H]2c2ccc(CO)cc2)cc1", "test-result": -0.618}
{"structure": "C=CC(=C)C1=CCO[C@@H]1[C@H]1CCCN1S(=O)(=O)c1ccccc1[N+](=O)[O-]", "test-result": -0.175}
{"structure": "COCCOC(=O)N1C(=O)[C@@]2(c3cc(C#Cc4ccc(OC)cc4)ccc31)[C@H](C(=O)N1CCN(c3ncccn3)CC1)[C@H]1C(=O)O[C@H](c3ccccc3)[C@H](c3ccccc3)N1[C@@H]2c1ccc(O)cc1", "test-result": -0.366}
{"structure": "O=C1O[C@H](c2ccccc2)[C@H](c2ccccc2)N2[C@H]1[C@@H](C(=O)Nc1nc3ccccc3s1)[C@]1(C(=O)Nc3ccccc31)[C@H]2c1ccc(O)cc1", "test-result": -0.0272}

###

- test-name: FRG1 promoter luciferase signal modulators, primary screen, FRG1 inhibition for FSHD, cell-based, C2C12 myotubes, firefly/Renilla luciferase, luminescence (AID 1084)
- test-parameters: higher = more signal, called active from +8 up or from −8 down
Listed next: entries and their corresponding z-score.
measure-name: z-score

{"compound": "O=C1OCCC=C[C@H]2OC34C=CCN(Cc5ccccc5)C(=O)[C@H]3N(CCCO)C(=O)[C@@H]4C12 (stereo partly specified)", "test-result": -0.138}
{"compound": "COC(=O)[C@]1(Cc2ccccc2N=[N+]=[N-])N=C(c2ccc(OCCCO)cc2)O[C@@H]1c1ccccc1N=[N+]=[N-]", "test-result": 3.58}
{"compound": "CCCN1C(=O)[C@@]2(CCC(=O)OC(C)(C)C)N=C(c3ccc(OCCCO)cc3)O[C@H]2c2ccccc21", "test-result": -1.22}
{"compound": "[N-]=[N+]=NCc1ccccc1C[C@@]1(C(=O)N2CCOCC2)N=C(c2ccc(OCCCO)cc2)O[C@@H]1c1ccccc1CN=[N+]=[N-]", "test-result": -3.63}
{"compound": "COc1ccc(C(O)C2C=CC3C(=O)NC(=O)C3N2Nc2ccccn2)cc1OCc1ccccc1 (stereo unspecified)", "test-result": 0.387}
{"compound": "COc1ccc([Si](C)(C)[C@H]2[C@H](CC(=O)N(CCO)Cc3ccccc3)O[C@@]3(C(=O)N(Cc4cccc(N5CCC5=O)c4)c4ccccc43)[C@@H]2C)cc1", "test-result": -1.55}
{"compound": "CN(C)CCCCNC(=O)[C@H]1C[C@H]2C(=O)N[C@@H](Cc3ccccc3)C(=O)N2[C@H]1c1ccc(O)cc1", "test-result": 1.85}
{"compound": "O=c1oc(-c2ccccc2)nc2cc(Br)ccc12", "test-result": -0.409}
{"compound": "O=C1C2C=CC(C(O)c3cccs3)N(Nc3ccccc3F)C2C(=O)N1c1ccccc1 (stereo unspecified)", "test-result": 0.69}
{"compound": "CC(=O)NCCCC[C@@H]1NC(=O)[C@H]2C[C@@H](C(=O)NCCCCCC[N+](C)(C)C)[C@@H](c3cccc(OCCO)c3)N2C1=O", "test-result": 5.18}
{"compound": "COCCOC(=O)N1C(=O)[C@@]2(c3cc(C#CCCO)ccc31)[C@H](C(=O)NC[C@H](O)c1ccccc1)[C@H]1C(=O)O[C@H](c3ccccc3)[C@H](c3ccccc3)N1[C@@H]2c1ccc(O)cc1", "test-result": -1.04}
